Each item that follows carries a reported Population Mitochondria Different-Phenotype (%).
- System: Fibroblast
- Experimental details: Multiplex assay against human fibroblast
- Type: toxicity, cell-based
- Assay context: 24 h, 1 µM, compound concentration 1 uM, replicate 2
Measure: Population Mitochondria Different-Phenotype (%)

compound=C[C@@H]1C[C@H]2[C@@H]3CCC4=CC(=O)C=C[C@]4(C)[C@@]3(F)[C@@H](O)C[C@]2(C)[C@@]1(O)C(=O)CO endpoint_result=1
compound=CC[C@H]1OC(=O)[C@H](C)[C@@H](O[C@H]2C[C@@](C)(OC)[C@@H](O)[C@H](C)O2)[C@H](C)[C@@H](O[C@@H]2O[C@H](C)C[C@H](N(C)C)[C@H]2O)[C@@]2(C)CC(C)=C(O2)[C@H](C)[C@@H](O)[C@]1(C)O endpoint_result=5
compound=C[C@H](NC(=O)c1c(C(F)F)nn(C)c1Oc1cccc(C(F)(F)F)c1)c1ccc(C(=O)O)cc1 endpoint_result=5
compound=O=C(O)c1cc2ccccc2c(Cc2c(O)c(C(=O)O)cc3ccccc23)c1O endpoint_result=11
compound=Cc1ccc(/C(=C\CN2CCCC2)c2ccccn2)cc1 endpoint_result=6
compound=CN(C)c1ccnc2sc3c(=O)n(N4CCCCCC4)cnc3c12 endpoint_result=2
compound="Cc1ccc(C(C)(O)c2nc3ccccc3s2)c(C)c1 (stereo not drawn)" endpoint_result=5
compound=CC(=O)NCCc1c(Cc2ccccc2)[nH]c2ccccc12 endpoint_result=8
compound=COc1cc(C(=O)N(CCCc2ccccc2)Cc2ccc(CC(=O)O)cc2)cc(OC)c1C endpoint_result=6
compound="CN1CCN2c3ncccc3Cc3ccccc3C2C1 (stereo not drawn)" endpoint_result=10
compound="COc1ccc2c(c1)C(C(=O)N(Cc1ccc(N(C)C)cc1)c1ccc(C(C)C)cc1)CCC2.Cl (stereo not drawn)" endpoint_result=11
compound=CCCn1c(=O)c2[nH]c(C3CCCC3)nc2n(CCC)c1=O endpoint_result=12
compound="CCCN1CCC[C@@H]2Cc3n[nH]cc3C[C@H]21.Cl [QUINPIROLE HYDROCHLORIDE]" endpoint_result=7
compound=CN1CCN(c2nc3cc(C(F)(F)F)ccc3n3cccc23)CC1.O=C(O)/C=C\C(=O)O.O=C(O)/C=C\C(=O)O endpoint_result=7
compound=O=C1COc2nccc(-c3ccccc3F)c2CN1Cc1cc(C(F)(F)F)cc(C(F)(F)F)c1 endpoint_result=3
compound=Cc1nc2ccc(Oc3ccc(F)cc3)cc2c(=O)n1C[C@H]1CCCN(C(C)C)C1.Cl endpoint_result=17
compound=Oc1c(CN2CCN(c3ccccn3)CC2)cc(Cl)c2cccnc12 endpoint_result=7
compound=CCCC(CCC)C(=O)O endpoint_result=7

----------
- Test system: HEK-293T
- Experimental details: Multiplex assay against HEK293T
- Format: toxicity, cell-based
- Assay context: human, 24 h, 1 µM, compound concentration 1 uM, replicate 1
1 means recorded Population Mitochondria Different-Phenotype (%) is 30% or above; -1 means it is below 30%.

molecule="CC(C)(C)c1ccc(S(=O)(=O)Nc2ccc(Cl)cc2C(=O)c2cc[n+]([O-])cc2)cc1 [VERCIRNON]" classification=-1
molecule="CCNC1(C(N)=O)CCN(c2ncnc3c2nc(-c2ccccc2Cl)n3-c2ccc(Cl)cc2)CC1 [OTENABANT]" classification=1
molecule=CCCn1c(=O)c2[nH]c(C3CCCC3)nc2n(CCC)c1=O classification=-1
molecule="CC1(COc2ccc3c(c2)ncn3-c2ccc3cccc(N4CCC(N)CC4)c3n2)COC1 [CRENOLANIB]" classification=-1
molecule="Cc1ccc(C(C)(O)c2nc3ccccc3s2)c(C)c1 (stereo unspecified)" classification=-1

----------
- Tested on: Fibroblast
- Experimental details: Multiplex assay against human fibroblast
- Assay type: toxicity, cell-based
- Assay context: 24 h, 10 µM, compound concentration 10 uM, replicate 1
Measure: Population Tubulin-Different-Phenotype (%)

structure_smiles=COc1c(C)cc(NC(=O)c2nn(Cc3ccc(F)cc3)c3c2CN(C(=O)c2ccc[nH]2)C[C@]3(C)C(N)=O)cc1C endpoint_result=90
structure_smiles=Cc1ccc(F)cc1C(=O)Nc1ccc(C(=O)N2Cc3cccn3Cc3ccccc32)c(Cl)c1 endpoint_result=63
structure_smiles=O=C(O)Cc1ccccc1Nc1c(Cl)cccc1Cl endpoint_result=19
structure_smiles=CCCC(CCC)C(=O)O endpoint_result=21
structure_smiles=Oc1c(CN2CCN(c3ccccn3)CC2)cc(Cl)c2cccnc12 endpoint_result=57

----------
- Test system: Fibroblast
- Experimental details: Multiplex assay against human fibroblast
- Assay type: toxicity, cell-based
- Assay context: 12 h, 10 µM, compound concentration 10 uM, replicate 2
Overview of reported Population Apoptotic (%) across a group of compounds:
Measure: Population Apoptotic (%)

compound=Cc1nc2ccc(Oc3ccc(F)cc3)cc2c(=O)n1C[C@H]1CCCN(C(C)C)C1.Cl system_under_test=Fibroblast endpoint_result=61%
compound=O=C(NCC(=O)N1CC[C@H](N[C@H]2CC[C@@](O)(c3ccc(-c4ncccn4)cn3)CC2)C1)c1cccc(C(F)(F)F)c1 system_under_test=Fibroblast endpoint_result=25%
compound="CCCN1CCC[C@@H]2Cc3n[nH]cc3C[C@H]21.Cl [QUINPIROLE HYDROCHLORIDE]" system_under_test=Fibroblast endpoint_result=45%
compound=CC[C@H]1OC(=O)[C@H](C)[C@@H](O[C@H]2C[C@@](C)(OC)[C@@H](O)[C@H](C)O2)[C@H](C)[C@@H](O[C@@H]2O[C@H](C)C[C@H](N(C)C)[C@H]2O)[C@@]2(C)CC(C)=C(O2)[C@H](C)[C@@H](O)[C@]1(C)O system_under_test=Fibroblast endpoint_result=40%
compound=CC(=O)NCCc1c(Cc2ccccc2)[nH]c2ccccc12 system_under_test=Fibroblast endpoint_result=21%
compound="COc1ccc2c(c1)C(C(=O)N(Cc1ccc(N(C)C)cc1)c1ccc(C(C)C)cc1)CCC2.Cl (configuration not stated)" system_under_test=Fibroblast endpoint_result=53%
compound=CC(C)(C)c1ccc(S(=O)(=O)Nc2ccc(Cl)cc2C(=O)c2cc[n+]([O-])cc2)cc1 system_under_test=Fibroblast endpoint_result=48%

----------
Some molecules, each annotated with its measured Population Apoptotic (%).
- Test system: U2OS
- Experimental details: Multiplex assay against U2OS
- Format: toxicity, cell-based
- Assay context: human, 12 h, 1 µM, compound concentration 1 uM, replicate 2
Measure: Population Apoptotic (%)

molecule=CCCn1c(=O)c2[nH]c(C3CCCC3)nc2n(CCC)c1=O unit_abbreviation=% endpoint_result=93
molecule="N#Cc1c(N)nc(SCc2csc(-c3ccc(Cl)cc3)n2)c(C#N)c1-c1ccc(OCCO)cc1 [CAPADENOSON]" unit_abbreviation=% endpoint_result=80
molecule=O=C(NCCO)c1cccc(-c2cc(Nc3ccc(OC(F)(F)F)cc3)ncn2)c1 unit_abbreviation=% endpoint_result=84
molecule=O=C1COc2nccc(-c3ccccc3F)c2CN1Cc1cc(C(F)(F)F)cc(C(F)(F)F)c1 unit_abbreviation=% endpoint_result=77
molecule=CSCC[C@H](NC=O)C(=O)N[C@@H](CC(C)C)C(=O)N[C@@H](Cc1ccccc1)C(=O)O unit_abbreviation=% endpoint_result=100
molecule=Cc1nc2ccc(Oc3ccc(F)cc3)cc2c(=O)n1C[C@H]1CCCN(C(C)C)C1.Cl unit_abbreviation=% endpoint_result=60
molecule="O=S(=O)(c1ccccc1)c1cnc2c(N3CCNCC3)cccc2c1 [INTEPIRDINE]" unit_abbreviation=% endpoint_result=70
molecule="CCCC(CCC)C(=O)O [VALPROIC ACID]" unit_abbreviation=% endpoint_result=66
molecule="c1cc(OCCCN2CCCCC2)ccc1CN1CCCCC1 [JNJ-5207852]" unit_abbreviation=% endpoint_result=58
molecule="Cc1ccc(C(C)(O)c2nc3ccccc3s2)c(C)c1 (centres undefined)" unit_abbreviation=% endpoint_result=100
molecule=CN(C)c1ccnc2sc3c(=O)n(N4CCCCCC4)cnc3c12 unit_abbreviation=% endpoint_result=87
molecule=COc1c(C)cc(NC(=O)c2nn(Cc3ccc(F)cc3)c3c2CN(C(=O)c2ccc[nH]2)C[C@]3(C)C(N)=O)cc1C unit_abbreviation=% endpoint_result=83
molecule="C[C@H](NC(=O)c1c(C(F)F)nn(C)c1Oc1cccc(C(F)(F)F)c1)c1ccc(C(=O)O)cc1 [PALUPIPRANT]" unit_abbreviation=% endpoint_result=91
molecule="C[C@H]1[C@H]2CC[C@H]3[C@@H]4CC=C5C[C@@H](N(C)C)CC[C@]5(C)[C@H]4CC[C@]23CN1C [CONESSINE]" unit_abbreviation=% endpoint_result=58
molecule="C[C@@H]1C[C@H]2[C@@H]3CCC4=CC(=O)C=C[C@]4(C)[C@@]3(F)[C@@H](O)C[C@]2(C)[C@@]1(O)C(=O)CO [DEXAMETHASONE]" unit_abbreviation=% endpoint_result=80
molecule="CNC[C@H](O)c1ccc(O)c(O)c1 [EPINEPHRINE]" unit_abbreviation=% endpoint_result=80
molecule="Cc1ccccc1C(=O)Nc1ccc(C(=O)N2CCCC(N(C)C)c3ccccc32)cc1.Cl (centres undefined)" unit_abbreviation=% endpoint_result=77
molecule=Oc1c(CN2CCN(c3ccccn3)CC2)cc(Cl)c2cccnc12 unit_abbreviation=% endpoint_result=100
molecule=CCOc1c2c(c(OCC)c3ncccc13)CN(c1ccc(CS(=O)(=O)NC(=O)Cc3ccccc3OC)cc1C)C2=O unit_abbreviation=% endpoint_result=100
